The measured values listed here are drawn from ChEMBL document CHEMBL1201862.

# Test system: SK-MEL-2
# EXPERIMENTAL PROTOCOL: NCI tumour cell line growth inhibition, 48 h
Active and inactive are the calls of the source. Cut-off read from the data, not from the text of the source: active = GI50 up to about 1.1 µM and inactive = higher.
READOUT NAME: GI50

Case O=C(O)CNCc1c2ccccc2nc2ccccc12 , SK-MEL-2, GI50 recorded as 50.8 µM (inactive)

Case CC(C)(C)OC(=O)N1CCCC1C(=O)NCCNc1ccc(NCCNC(=O)C2CCCN2C(=O)OC(C)(C)C)c2c1C(=O)c1ccccc1C2=O (stereo unspecified) , SK-MEL-2, GI50 recorded as 20.7 µM (inactive)

Case Clc1ccc(Cl)c(Nc2ccnc(SCc3ccccc3)n2)c1 , SK-MEL-2, GI50 recorded as > 100 µM (inactive)

Case COc1ccc([C@@H]2OC(=O)C3C2C(=O)O[C@H]3c2ccc(OC)c(OC)c2)cc1OC (stereo partly specified) , SK-MEL-2, GI50 recorded as > 100 µM (inactive)

Case COc1cc(C2C(C(=O)Nc3ccc([N+](=O)[O-])cc3)=C(C)NC(C)=C2C(=O)Nc2ccc([N+](=O)[O-])cc2)ccc1O , SK-MEL-2, GI50 recorded as 15.9 µM (inactive)

Case O=[N+]([O-])c1ccc(/N=N/c2c(O)ccc3cc(S(=O)(=O)O)cc(S(=O)(=O)O)c23)cc1 , SK-MEL-2, GI50 recorded as > 100 µM (inactive)

Case CC(C)c1ccccc1SCc1cc(=O)cc(CSc2ccccc2C(C)C)o1 , SK-MEL-2, GI50 recorded as 17.4 µM (inactive)

Case O=C(N/N=C(/c1nc2ccc(Cl)cc2[nH]c1=O)C(O)c1ccc(Cl)cc1Cl)c1ccncc1 (stereo unspecified) , SK-MEL-2, GI50 recorded as > 100 µM (inactive)

Case COc1cc2c(cc1OCCCC(=O)Nc1cc(C(=O)Nc3cc(C(=O)Nc4cc(C(=O)NCCCN(C)C)n(C)c4)n(C)c3)n(C)c1)N=C[C@@H]1CCCN1C2=O , SK-MEL-2, GI50 recorded as 2.53 µM (inactive)

Case CC(C)C1CN1CC(O)Cn1ccnc1[N+](=O)[O-] (stereo unspecified) , SK-MEL-2, GI50 recorded as > 100 µM (inactive)

Case O=CN/C=C/c1cccc(O)c1 , SK-MEL-2, GI50 recorded as 58.7 µM (inactive)

Case COC(=O)c1sc2ncc3c(c2c1N)CC(C)CC3 (stereo unspecified) , SK-MEL-2, GI50 recorded as > 100 µM (inactive)

Case COC(=O)NN(C(=O)OC)c1c(-c2ccccc2)nc(SC)n1N , SK-MEL-2, GI50 recorded as > 100 µM (inactive)

Case COc1cc(Oc2nc3c(N)cc(C(F)(F)F)cc3nc2-c2ccccc2)cc(OC)c1OC , SK-MEL-2, GI50 recorded as 3.24 µM (inactive)

Case CCOC(=O)C1=C(C(=O)OCC)C2c3ccccc3C=CN2C(C(=O)OCC)=C(SC)S1 (stereo unspecified) , SK-MEL-2, GI50 recorded as > 100 µM (inactive)

Case O=C(Nc1ccc2ncccc2c1)Nc1ccc2ncccc2c1 , SK-MEL-2, GI50 recorded as > 100 µM (inactive)

Case CCN(CC)CCCNc1ncc(C)c2[nH]c3ccncc3c12 , SK-MEL-2, GI50 recorded as 10.5 µM (inactive)

Case CC(NC(=O)Cc1ccc(OP(=O)(OCc2ccc([N+](=O)[O-])o2)N(C)CCCCCl)cc1)c1ccc(OCC2CCCCC2)c(C(N)=O)c1 (stereo unspecified) , SK-MEL-2, GI50 recorded as 2.26 µM (inactive)

Case C=CCN(N=O)C(=O)N(CCC)CCCC(NC(C)=O)C(=O)NCc1ccccc1 (stereo unspecified) , SK-MEL-2, GI50 recorded as > 100 µM (inactive)

Case O=C(/C=C1/NC(=O)CS1)Nc1ccccc1 , SK-MEL-2, GI50 recorded as 89.5 µM (inactive)

Case Cc1cc(C)c(N)c(C)c1N , SK-MEL-2, GI50 recorded as > 100 µM (inactive)

----------
# Test system: NCI-H226
# EXPERIMENTAL PROTOCOL: NCI tumour cell line growth inhibition, 48 h
Active and inactive are the calls of the source. Cut-off read from the data, not from the text of the source: active = GI50 up to about 1.1 µM and inactive = higher.
// classify into active, inactive

[ask] Call for entry NNc1nncc2[nH]nnc12 :
[reply] inactive

[ask] Call for entry O=C(O)Cc1c[nH]c2ccc(F)cc12 :
[reply] inactive

[ask] Call for entry Oc1ccccc1/C=N/N1C(=S)N(c2ccccc2)C(=N\c2ccccc2)/C1=N/c1ccccc1 :
[reply] inactive

[ask] Call for entry O=C1C2=Nc3ccccc3C(O)(C(=O)O)N2c2ccccc21 (centres undefined) :
[reply] inactive

[ask] Call for entry O=c1[nH]nc(-c2ccccc2)n1/N=C/c1ccc([N+](=O)[O-])cc1 :
[reply] inactive

[ask] Call for entry O=C1NCC(NC(=O)C(F)(F)F)c2c(Br)sc(Br)c21 (centres undefined) :
[reply] inactive

[ask] Call for entry COC(=O)c1ccc(N/C=C(/C#N)c2ccsc2)cc1 :
[reply] inactive

[ask] Call for entry CCN(CC)c1ccc2cc(C(N)=S)c(=N)oc2c1 :
[reply] inactive

[ask] Call for entry COc1ccc(C2=C(Cl)c3cc(OC)c(OC)cc3C2OC)cc1OC (centres undefined) :
[reply] inactive

[ask] Call for entry CCCCCC(O)C(O)CCC[C@H](O)[C@H]1CC[C@H]([C@H]2CC[C@H]([C@H](O)CCCCCCCCCCCCC3=C[C@H](C)OC3=O)O2)O1 (some centres undefined) :
[reply] inactive

[ask] Call for entry S=c1oc(CCCCCCCCc2nn(CNc3ccc(Cl)cc3)c(=S)o2)nn1CNc1ccc(Cl)cc1 :
[reply] inactive

[ask] Call for entry [Zn+2][N+]12CCN3CCN4CCN(CC1)[PH]432 (centres undefined) :
[reply] inactive

[ask] Call for entry NC(=O)NCCCC(NC(=O)OCCCCn1ccc(=O)[nH]c1=O)C(=O)O (centres undefined) :
[reply] inactive

[ask] Call for entry COc1ccc(COCC[C@H](C)OC2OC(CO)C(O)C(O)C2O)cc1 (some centres undefined) :
[reply] inactive

[ask] Call for entry Cc1ccc(Cc2n[nH]c(=O)n2/N=C\CC/C=N\n2c(Cc3ccc(C)cc3)n[nH]c2=O)cc1 :
[reply] inactive

[ask] Call for entry COc1ccc(/C=C/C(=O)CC(=O)/C=C/c2ccc(OC)cc2)cc1 :
[reply] inactive

[ask] Call for entry CCOC(=O)C(C(=O)COC(C)(C)C)[C@@H]1C=C[C@H](OC(C)=O)C1 (some centres undefined) :
[reply] inactive

[ask] Call for entry COc1ccc(CCN2CCN(CCCc3ccccc3)CC2)cc1 :
[reply] inactive

[ask] Call for entry COc1cc(C2c3cc4c(cc3[C@@H](Nc3cnc5ccccc5c3)C3COC(=O)[C@H]23)OCO4)cc(OC)c1O (some centres undefined) :
[reply] active

----------
# System: RPMI-8226
# EXPERIMENTAL PROTOCOL: NCI tumour cell line growth inhibition, 48 h
Calls of active or inactive are those of the source. No stated cut-off is given here; in the data, active = GI50 up to about 1.1 µM and inactive = higher.
So I've got a bunch of molecules here, and I need their GI50 values.

In plain terms, Nc1c(C(=O)c2ccc(Cl)cc2)[nH]c(NCc2ccccc2)c1C(=S)Nc1ccccc1 has a documented GI50 of 1.79 µM (inactive)

In plain terms, NC(=S)N1N=C2c3ccccc3CC[C@H]2[C@@H]1c1ccc(Cl)cc1 has a documented GI50 of 18.6 µM (inactive)

In plain terms, CC1=CC(=O)/C(=C/Nc2nc(-c3ccc([N+](=O)[O-])cc3)cs2)C(=O)O1 has a documented GI50 of > 100 µM (inactive)

In plain terms, COc1ccc(C2=C(Cl)c3cc(OC)c(OC)cc3C2OC)cc1OC (stereo unspecified) has a documented GI50 of 23.8 µM (inactive)

In plain terms, C[C@]12CC[C@H](O)C=C1CC[C@@H]1[C@@H]2CC[C@]2(C)C(c3ccc(=O)oc3)CC[C@]12O (stereo partly specified) has a documented GI50 of 0.0125 µM (active)

In plain terms, Cc1cccc(-c2cc(O)c3c(C)cc(C)nc3n2)c1 has a documented GI50 of 4.07 µM (inactive)

In plain terms, NC(=O)c1cc(N2CC2)c([N+](=O)[O-])cc1[N+](=O)[O-] [TRETAZICAR] has a documented GI50 of > 100 µM (inactive)

In plain terms, O=[N+]([O-])c1ccc(/N=N\c2c(O)ccc3ccccc23)c([N+](=O)[O-])c1 has a documented GI50 of > 83.4 µM (inactive)

In plain terms, O=C1NC(S(=O)(=O)O)=NNC12c1ccccc1-c1ccccc12 has a documented GI50 of > 10 µM (inactive)

In plain terms, COc1ccc(OC)c(N2C(=O)CSC2c2cc(OC)c(OC)c(OC)c2)c1 (stereo unspecified) has a documented GI50 of > 100 µM (inactive)

In plain terms, Cc1ccc(S(=O)(=O)n2c3ccc(Br)cc3c3nc4ccccc4nc32)cc1 has a documented GI50 of > 100 µM (inactive)

In plain terms, CC(C)N/C(=N\C#N)NS(=O)(=O)c1cnccc1NC1CCCCCCC1 has a documented GI50 of 39.8 µM (inactive)

In plain terms, O=C1NN=C(c2ccc(Cl)cc2)CC1C1C(=O)N(c2ccccc2)N=C1c1ccccc1 (stereo unspecified) has a documented GI50 of 37.1 µM (inactive)

In plain terms, O=C1C=CC2CCC1C2 (stereo unspecified) has a documented GI50 of 34 µM (inactive)

In plain terms, O=C1CCC(=O)N1Sc1ccccc1 has a documented GI50 of > 100 µM (inactive)

In plain terms, CC(C)(C)c1cc(C2=NNC(c3ccccc3)C2)cc(C(C)(C)C)c1O (stereo unspecified) has a documented GI50 of 15 µM (inactive)

In plain terms, COc1ccc(C(C#N)NNC(=O)Cc2ccccc2)cc1OC (stereo unspecified) has a documented GI50 of > 100 µM (inactive)

In plain terms, CN(C)c1ccc(N2C(=S)SC(=N\c3ccccc3)/C2=N/c2ccccc2)cc1 has a documented GI50 of > 100 µM (inactive)

In plain terms, Cc1ccc(S(=O)(=O)c2ccc(NC(=O)SCCC(=O)O)cc2)cc1 has a documented GI50 of > 100 µM (inactive)

In plain terms, CC(C(=O)N1C(=O)N(C(=O)C(C)C(O)c2ccccc2)C2CCCCC21)C(O)c1ccccc1 (stereo unspecified) has a documented GI50 of 34 µM (inactive)

In plain terms, N[C@H]1CCN(c2c(F)cc3c(=O)c(C(=O)O)cn4c3c2Oc2c-4ccc3c2ccc2ccccc23)C1 has a documented GI50 of 0.226 µM (active)
